The reported numbers originate from patent US11304944B2.

assay: Plasma pharmacokinetics after single IV bolus in Sprague Dawley rats (LC/MS/MS, analyte Compound 1); type: in vivo; conditions: male, rat, Compound 1 30 mg/kg single IV bolus
Quantity Kind: Cmax

Which Cmax reading was recorded for the compound COC1C(OC(=O)N[C@H]2CC[C@H](N)CC2)CC[C@]2(CO2)C1[C@@]1(C)O[C@@H]1CC=C(C)C (stereo partly shown) ?
~15 µM

---

Assay: Plasma pharmacokinetics after single IV bolus in Sprague Dawley rats (LC/MS/MS, analyte Compound 1)
Assay type: in vivo
Settings: male, rat, Compound 1 30 mg/kg single IV bolus
Protocol: Blood samples were collected via saphenous vein puncture at 0, 0.25, 0.5, 1, 2, 4, 8, 24 and 48 hours.
Quantity Kind: half-life

Which half-life reading was recorded for the compound COC1C(OC(=O)N[C@H]2CC[C@H](N)CC2)CC[C@]2(CO2)C1[C@@]1(C)O[C@@H]1CC=C(C)C (stereo partly shown) ?
10 to 15 min
